# Experimental system: T1, ZNF524 ZF2-4 (ZF1 removed) (human, UniProt Q96C55 138-223)
# T1 sequence: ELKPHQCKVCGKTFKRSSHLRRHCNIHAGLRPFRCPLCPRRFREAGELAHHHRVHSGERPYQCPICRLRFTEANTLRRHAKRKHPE
# Procedure details: ITC; ITC: 20 mM Tris-HCl pH 7.5, 150 mM NaCl, 20 C; pull-down: 50 mM Tris-HCl pH 7.5, 150 mM NaCl, 0.5% IGEPAL, 5 mM MgCl2, 1 mM DTT, salmon sperm DNA, 4 C
# Condition context: protein: recombinant; tags: none (GST removed by TEV); blunt

Binder: TTAGGG 12-bp duplex (dsDNA) DNA 1: GGTTAGGGTTAG DNA 2: CTAACCCTAACC
Unit name: nM
Kd: 620
